target: human glucagon receptor (human) (UniProt P47871); experiment: cell-based or functional assay
Sequence (P47871 26-477): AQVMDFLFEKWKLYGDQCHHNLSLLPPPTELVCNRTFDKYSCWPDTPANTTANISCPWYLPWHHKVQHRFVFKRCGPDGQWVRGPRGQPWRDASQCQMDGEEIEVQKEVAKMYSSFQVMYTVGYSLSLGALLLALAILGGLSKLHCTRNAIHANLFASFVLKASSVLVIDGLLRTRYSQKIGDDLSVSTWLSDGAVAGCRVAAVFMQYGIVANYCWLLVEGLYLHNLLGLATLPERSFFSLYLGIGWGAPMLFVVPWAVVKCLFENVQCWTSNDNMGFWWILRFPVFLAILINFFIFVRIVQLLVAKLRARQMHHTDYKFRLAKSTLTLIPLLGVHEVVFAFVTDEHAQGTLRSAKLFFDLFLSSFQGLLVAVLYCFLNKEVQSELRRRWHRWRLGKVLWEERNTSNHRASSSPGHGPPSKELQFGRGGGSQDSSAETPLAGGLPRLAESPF
# Satisfied = Relative cAMP EC50 below 4 nM (exclusive); Not satisfied = Relative cAMP EC50 at/above 4 nM

YXQGTFTSDFSKXLDKKAQXAFIEYLLAGGPSSGAPPPGGS (Aib, αMeL; acylated Lys; C-terminal amide; synthetic construct; SITE 2: note = 2-Aminoisobutyric Acid; SITE 13: note = alpha-methyl-leucine; SITE 17: note = Lysine is chemically modified through conjugation of the epsilon-amino group of the Lysine side chain with (2-[2-(2-Amino-ethoxy)-ethoxy]-acetyl)-(gamma-Glu)-CO-(CH2) 18-CO2H; SITE 20: n) [Example 16] :: Not satisfied
YXQGTXTSDXXIXLDXKAQXXFIEYLIEGGPSSGEPPPSGTE (not fully specified; printed without C-terminal amide; synthetic construct; SITE 2: note = 2-Aminoisobutyric Acid; SITE 6: note = alpha-methyl-2-fluoro-L-phenylalanine; SITE 10: note = 3-(4-Pyridyl)-L-alanine; SITE 11: note = alpha-methyl-L-serine; SITE 13: note = alpha-methyl-leucine; SITE 16: note = L-ornithine; SITE 17: note = Lysine is chemically mo) [Example 522] :: Not satisfied
YXQGTFTSDXSXXLDKKAQXAFIEXLIEXGPSSGEPPPSGS (Aib, 4Pal, Orn, αMeL, Me4Pal, acylated K, C-terminal amide; synthetic construct; SITE 2: note = 2-Aminoisobutyric Acid; SITE 10: note = 3-(4-Pyridyl)-L-alanine; SITE 12: note = L-ornithine; SITE 13: note = alpha-methyl-leucine; SITE 17: note = Lysine is chemically modified through conjugation of the epsilon-amino group of the Lysine side chain with (2-[2-(2-) [Example 987] :: Satisfied
YXQGTFTSDFSXXLDKKAQXAFIEYLLAGGPSSGEPPPSEG (Aib, Orn, alpha-methyl-Leu, acylated Lys, C-terminal amide; synthetic construct; SITE 2: note = 2-Aminoisobutyric Acid; SITE 12: note = L-ornithine; SITE 13: note = alpha-methyl-leucine; SITE 17: note = Lysine is chemically modified through conjugation of the epsilon-amino group of the Lysine side chain with (2-[2-(2-Amino-ethoxy)-ethoxy]-acetyl)-(gamma-Glu)) [Example 29] :: Not satisfied
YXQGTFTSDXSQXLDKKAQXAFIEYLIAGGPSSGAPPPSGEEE (Aib, 4Pal, αMeL, Me4Pal, acylated K, C-terminal amide; synthetic construct; SITE 2: note = 2-Aminoisobutyric Acid; SITE 10: note = 3-(4-Pyridyl)-L-alanine; SITE 13: note = alpha-methyl-leucine; SITE 17: note = Lysine is chemically modified through conjugation of the epsilon-amino group of the Lysine side chain with D-Glutamic acid-(gamma-Glu)-CO-(CH2)16) [Example 1088] :: Not satisfied
